system: Plasmodium falciparum; test: In vitro anti-protozoan activity against P. f.; assay type: cell-based; conditions: concentration that gives 50% growth inhibition; average of duplicate determinations; K = 1,000
In this section, each of the molecules is paired with its reported IC50.
Reply with the number and its unit after it.

N=C(N)c1ccc(-c2ccc3nc(-c4ccc(C(=N)N)cc4)cn3c2)cc1 = 92 nM

input: Bench note: what IC50 did N=C(N)c1ccc(-c2cn3c(n2)CCC(c2ccc(C(=N)N)cc2)C3)cc1 (centres unmarked) show?
output: 85 nM

----------
system: Poly-(dA.dT)2; experiment: DNA binding studies (ΔTm); details: DNA affinity
reported_metric: ΔTm Poly-(dA.dT)2 (°C)
# number only, unit °C dropped from output

Some solved cases for reference:
CONC(=N)c1ccc(-c2ccc(-c3cn4cc(C(=N)NOC)ccc4n3)cc2)cc1 = 0.3
N=C(N)c1ccc(OCCCCCOc2ccc(C(=N)N)cc2)cc1 [Pentamidine(I), Pentamidine, reference compound] = 12
N=C(N)c1ccc(-c2cccc(-c3cn4c(n3)CCC(C(=N)N)C4)c2)cc1 (centres unmarked) [Compound 13b] = 19.1

input: Bench note: what ΔTm Poly-(dA.dT)2 did CONC(=N)c1ccc(-c2ccc(-c3ccc(C(=N)NOC)cc3)o2)cc1 [Compound IIIa, 2,5-Bis[4-(methoxyamidino)phenyl]furan, reference compound] show?
output: 25

input: Now consider N=C(N)c1ccc(-c2ccc(-c3cn4c(n3)CCC(C(=N)N)C4)cc2)cc1 (centres unmarked) [Compound 13a] .
output: 21.3

input: Now consider N=C(N)c1ccc(-c2ccc(-c3cn4c(n3)CCC(C(=N)N)C4)o2)cc1 (centres unmarked) .
output: 15.6

input: Now consider N=C(N)c1ccc(-c2ccc(-c3cn4cc(C(=N)N)ccc4n3)o2)cc1 .
output: 26.2

input: Now consider N=C(N)c1ccc(-c2ccc(-c3cn4cc(C(=N)N)ccc4n3)cc2)cc1 [Compound 14a] .
output: 24.2
